tested on: U-2 OS; assay: relative cell count vs DMSO (cell painting) (fraction of DMSO control); higher = more cells remaining (less cytotoxic); settings: 1.25 µM; 24 h
Recorded relative cell count values for a group of compounds are listed next.

compound	relative cell count
O.O=P1(N(CCCl)CCCl)NCCCO1 (stereo unspecified)	0.999
CNC(=O)Nc1ccc2c(c1)[C@@]1(CC2)OC(=O)N(CC(=O)N(Cc2ccc(F)cc2)[C@@H](C)C(F)(F)F)C1=O	1.01
CC1(C)CC[C@]2(C(=O)O[C@@H]3O[C@H](CO)[C@@H](O)[C@H](O)[C@H]3O)CC[C@]3(C)C(=CC[C@@H]4[C@@]5(C)CC[C@H](O[C@@H]6O[C@H](C(=O)O)[C@@H](O)[C@H](O)[C@H]6O[C@@H]6O[C@H](CO)[C@@H](O)[C@H](O)[C@H]6O)C(C)(C)[C@@H]5CC[C@]43C)[C@@H]2C1	0.973
CC1(C)CCC2=C(O1)c1ccccc1C(=O)C2=O	0.993
COc1ccc(/C=C/C(=O)O[C@@H]2[C@H](O[C@@H]3O[C@@H](C)[C@H](O)[C@@H](O)[C@H]3O)[C@@H](O[C@@H]3O[C@@H](C)[C@H](O[C@@H]4OC[C@@H](O[C@@H]5O[C@H](CO)[C@H](O)[C@H](O)[C@H]5O)[C@H](O)[C@H]4O)[C@@H](O)[C@H]3O)[C@H](OC(=O)[C@]34CCC(C)(C)C[C@H]3C3=CC[C@@H]5[C@@]6(C)C[C@H](O)[C@H](O[C@@H]7O[C@H](CO)[C@@H](O)[C@H](O)[C@H]7O)[C@@](C)(C(=O)O)[C@@H]6CC[C@@]5(C)[C@]3(CO)CC4)O[C@@H]2C)cc1	0.975
O=C1/C(=C/c2ccc(O)c(Br)c2)CCC/C1=C\c1ccc(O)c(Br)c1	1.02

###

system: U-2 OS; experiment: relative cell count vs DMSO (cell painting) (fraction of DMSO control); higher = more cells remaining (less cytotoxic); conditions: 5 µM; 24 h
Recorded relative cell count for the following compounds
measurement_type: relative cell count

> print(dat)
                           structure.string     measurement.type  data.value
1               O=c1c2ccccc2[se]n1-c1ccccc1  relative cell count        0.98
2                  O=NN(CCCl)C(=O)NC1CCCCC1  relative cell count       0.988
3  CCCCCC[C@H]1C(=O)O[C@H](C)[C@H](NC(=O)c2cccc(NC=O)c2O)C(=O)O[C@@H](C)[C@@H]1OC(=O)CC(C)C  relative cell count         0.8
